Molecular target: T1, Regulator of sigma D from Escherichia coli (Rsd^ec) (E. coli, UniProt P0AFX4 1-158)
T1 construct: Rsd (regulator of sigma D), anti-sigma factor of sigma 70, E. coli; 158-residue-long protein; called 'intact Rsd' in the abstract and 'wild-type Rsd vector' in the methods; Vector was a gift from Ann Hochschild; source: E. coli C41, purified as described [24,50]
T1 sequence (looked up): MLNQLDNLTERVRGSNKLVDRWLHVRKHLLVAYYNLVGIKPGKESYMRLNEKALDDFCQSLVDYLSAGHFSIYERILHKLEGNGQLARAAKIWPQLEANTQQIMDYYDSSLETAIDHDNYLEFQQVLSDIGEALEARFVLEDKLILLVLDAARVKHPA
Experiment: ITC; Rsd^ec or EIN^sc (10–20 µM) in the cell, peptide (100–200 µM) in the syringe; 50 mM Tris, pH 7.0, 25 °C; single binding-site model, 1:1 stoichiometry assumed
Conditions: both partners purified
Checkbox rule: Kd lower than 3000 nM = 1.0; Kd not lower than 3000 nM = 0.0.

[[record]]
binder = "Ac-GWAEGLHARAASIFVRAATATG-NH2 (HPr of Streptomyces coelicolor, residues 9-30, with P18A; source: synthetic peptide, bought: NZYTech (purity >95%)) [HPr^9–30 P18A peptide]"
assigned_category = 1.0

[[record]]
binder = "Ac-GWAEGLHARPASIFVRAATATG-NH2 (HPr (histidine phosphocarrier) of Streptomyces coelicolor, HPr^sc, residues 9-30; first letter printed as G^9; The limit residues are printed as Gly9-Ala30 (abstract) and Ala9-Gly30 (introduction); source: synthetic peptide, bought: NZYTech (purity >95%)) [HPr^9–30 wild-type peptide (residues 9-30 of HPr from Streptomyces coelicolor)]"
assigned_category = 1.0

[[record]]
binder = "Ac-GWAEGLHARAASAFARAATATG-NH2 (HPr of Streptomyces coelicolor, residues 9-30, with P18A, I21A and V23A; also called triple-mutant; source: synthetic peptide, bought: NZYTech (purity >95%)) [HPr^9–30 P18A/I21A/V23A peptide]"
assigned_category = 1.0

[[record]]
binder = "Ac-GWAEGLHARPASIAVRAATATG-NH2 (HPr of Streptomyces coelicolor, residues 9-30, with F22A; source: synthetic peptide, bought: NZYTech (purity >95%)) [HPr^9–30 F22A peptide]"
assigned_category = 0.0

[[record]]
binder = "Ac-GWAEGLHARPASIFARAATATG-NH2 (HPr of Streptomyces coelicolor, residues 9-30, with V23A; source: synthetic peptide, bought: NZYTech (purity >95%)) [HPr^9–30 V23A peptide]"
assigned_category = 0.0

